System name: 5-HT4 receptor (Rattus norvegicus, UniProt Q62758)
Construct: One 2 cm segment of intrathoracic esophagus proximal to the diaphragm was removed from male rats
Sequence (Q62758 whole entry): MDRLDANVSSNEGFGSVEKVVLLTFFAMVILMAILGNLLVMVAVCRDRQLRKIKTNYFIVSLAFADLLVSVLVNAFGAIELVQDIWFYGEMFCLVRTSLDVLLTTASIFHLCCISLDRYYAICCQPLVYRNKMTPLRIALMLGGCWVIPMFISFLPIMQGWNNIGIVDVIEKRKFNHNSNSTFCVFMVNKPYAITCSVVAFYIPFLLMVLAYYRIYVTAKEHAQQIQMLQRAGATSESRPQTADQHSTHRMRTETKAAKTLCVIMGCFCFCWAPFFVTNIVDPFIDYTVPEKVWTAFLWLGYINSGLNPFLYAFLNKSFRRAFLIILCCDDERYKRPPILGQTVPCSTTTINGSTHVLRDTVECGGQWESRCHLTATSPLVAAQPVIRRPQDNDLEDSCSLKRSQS
Assay overview: biochemical
Measurement parameters: carbachol (3 μM)-contracted rat esophagus TMM; 37° C.; tissues from 5 rats; read-out: 5-HT4 Agonism (Rat TMM) In Vitro Assay: EC50 Values
Property measured: EC50 (nM)

INSERT INTO results (compound, assay_result) VALUES
  ('CC(C)n1c(=O)n(C(=O)NC[C@@H]2CN3CC[C@H]2C3)c2ccccc21 (relative stereo) [Example 35]', 294),
  ('CC(C)n1c(=O)n(C(=O)NCC23CC4CN(CC4C2)C3)c2ccccc21 [Example 33]', 337),
  ('CC(C)n1c(=O)n(C(=O)NCC23CC4CN(CC4C2)C3)c2cc(Cl)ccc21 [Example 34]', 248),
  ('CC(C)n1c(=O)n(C(=O)NCC2C3CC4CC2N(C4)C3)c2ccccc21 (stereo not shown) [Example 29]', 1630),
  ('CC(C)n1c(=O)n(C(=O)NCC2C3CC4CC2N(C4)C3)c2ccccc21 (stereo not shown) [Example 30]', 219),
  ('CCn1c(=O)n(C(=O)NC2C3CC4CC2CN(C4)C3)c2ccccc21 (stereo not shown) [Example 20]', 10000),
  ('CC(C)n1c(=O)n(C(=O)NCCC23CCCN2CCC3)c2cc(Cl)c(N)cc21 [Example 12B]', 374);
